Exercise: for every item that follows, state its recorded protein stability index.
B1: ESRRA (parent)
chain: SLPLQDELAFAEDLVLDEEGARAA

# Variants of: B1
# assay-procedure: protein stability index of a GFP-peptide fusion (GPS, HEK-293T) (PSI 1-6); higher = more stable;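 note: lentivirally expressed fusions sorted by FACS into six bins by GFP to DsRed ratio, PSI derived from sequencing read proportions per bin multiplied by bin number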
# measurement-conditions: c terminus: a fixed tail appended
Give bare numbers.

Illustrative cases are given below, each with its answer.
In [3]: df
Out[3]:
   variant_key  recorded_value
0         E12N            5.53
1         V15M            4.79
2         A23M            2.43
3         L14G            5.57
4          L2F            3.06
5         L14Q             3.5

For each of the variants below, state protein stability index.
1. L16Y
2. E7V
3. F10M
4. R22D
5. Q5R

[2.44, 2.03, 2.52, 4.19, 3.37]
